# experiment-description: Probe fluorescence ratio response to linolenic acid relative to ADIFAB2
# Format: binding
# conditions: response relative to ADIFAB2
Reported DR/DR LNA values follow for various molecules
Provide a numeric answer; units are not to be included.

molecule | DR/DR LNA
119Q, 72A (protein, listed as Rattus norvegicus, PEPTIDE (1)...(131) wild-type rat intestinal fatty acid binding protein) AFDGTWKVDRNENYEKFMEKMGINVVKRKLGAHDNLKLTITQEGNKFTVKESSNFRNIDVVFELGVDFAYSAADGTELTGTWTMEGNKLVGKFKRVDNGKELIAVREISGNELIQTYTQEGVEAKRIFKKE | 0.62
34S, 72A (protein, listed as Rattus norvegicus, PEPTIDE (1)...(131) wild-type rat intestinal fatty acid binding protein) AFDGTWKVDRNENYEKFMEKMGINVVKRKLGAHSNLKLTITQEGNKFTVKESSNFRNIDVVFELGVDFAYSAADGTELTGTWTMEGNKLVGKFKRVDNGKELIAVREISGNELIQTYTYEGVEAKRIFKKE | 0.59

Name the reported DR/DR LNA value associated with the molecule 126K, 72A (protein, listed as Rattus norvegicus, PEPTIDE (1)...(131) wild-type rat intestinal fatty acid binding protein) AFDGTWKVDRNENYEKFMEKMGINVVKRKLGAHDNLKLTITQEGNKFTVKESSNFRNIDVVFELGVDFAYSAADGTELTGTWTMEGNKLVGKFKRVDNGKELIAVREISGNELIQTYTYEGVEAKKIFKKE
1.017
